tested on: Parabacteroides merdae; assay: growth AUC relative to DMSO control (median of replicates) (fraction); higher = more growth (less inhibition), active = hit call of the paper; conditions: 20 µM; 24 h;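 active = AUC reduced over 20% with Padj below 0.05 in at least 2 of 3 replicates; inactive = otherwise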
Select the matching outcome among yes (active), no (inactive)

>  <MOLECULE>
COC(C)(C)CCCC(C)C/C=C/C(C)=C/C(=O)OC(C)C (centres undefined)

>  <CAT>
no

$$$$
>  <MOLECULE>
CCSC(=O)N(CC)C1CCCCC1

>  <CAT>
no

$$$$
>  <MOLECULE>
COP(N)(=O)SC (centres undefined)

>  <CAT>
no

$$$$
>  <MOLECULE>
c1ccc(-c2ccccc2)cc1

>  <CAT>
no

$$$$

Prompt line: Write down the call the test reported for this molecule. Item: O=C1C2(Cl)C3(Cl)C4(Cl)C(Cl)(Cl)C5(Cl)C3(Cl)C1(Cl)C5(Cl)C24Cl (centres undefined)
Response line: yes
